testDescription: label from the status in PepcDB records
metric: protein production

sequenceString	metric	assayValue
MPGTNNEATRKEEVKKIVENRRRKAELIREQQIKKRNTIIAIGVGILVVLILVMVLAKSCSSGKKPAKTSATTAKQITTVAQTTVQETTTAEEYMYTTDVLNLRKSASAKSKLITQIGAGKKVQVISENGKWCQIKYGKDTGYVMKKYLSYSNMLD	protein production	failed
MVRNSMKAEYDIDHLPHQTFYGDYSKTLVPMNKNSQIITKIKPKIRIIHIFAPEIINTDVKNFRTLVQSLTGKPEITKTGSKKKITNTNFPAPPGLPQDSGQEHTAELDNRIIGSHVVKEEWGSSSNTNTYFDFDGLIDLDEDDNIFSSRWFDLQQQ	protein production	failed
MGRLHCTEDPVPEAVGGDMQQLNQLGAQQFSALTEVLFHFLTEQKEVERFLAQLSEFATTNQISLGSLRSIVKSLLLVPNGALKKSLTAKQVQADFITLGLSEEKATYFSEKWKQNTPTLARWAIGQTLMINQLIDMEWKFGVTSGSSELEKVGSIFLQLKLVVKKGNQTKNVYIELTLPQFYSFLHEMERVRTSMECFC	protein production	failed

====

testDescription: label from the status in PepcDB records
metric: protein production

Some solved entries appear below for comparison.
sequenceString	protein production
MTTDKQTSINLALSTINGKWKLSLMDELFQGTKRNGELMRALDGITQRVLTDRLREMEKDGLVHRESFNELPPRVEYTLTPEGYALYDALSSLCHWGETFAQKKARLNK	not failed
MNIRERKRKHLEACLEGEVAYQKTTTGLEGFRLRYQALAGLALSEVDLTTPFLGKTLKAPFLIGAMTGGEENGERINLALAEAAEALGVGMMLGSGRILLERPEALRSFRVRKVAPKALLIANLGLAQLRRYGRDDLLRLVEMLEADALAFHVNPLQEAVQRGDTDFRGLVERLAELLPLPFPVMVKEVGHGLSREAALALRDLPLAAVDVAGAGGTSWARVEEWVRFGEVRHPELCEIGIPTARAILEVREVLPHLPLVASGGVYTGTDGAKALALGADLLAVARPLLRPALEGAERVAAWIGDYLEELRTALFAIGARNPKEARGRVERV	not failed
MKSKDSPIINEQFWDALFFNGTMPWDRSQTPNELKHYLKRIADKTHSVFIPGCGAAYEVSHFVDCGHDVIAMDYSAEAVNLAKSQLGQHQDKVMLGDVFNADFSREFDVIYERAFLAALPREIWGDYFAMIERLLPSNGLLVGYFVISDDYRSRFPPFCLRSGEIEQKLEANFHLIESTPVTDSVDVFKGKEQWMVWQKK	failed
MIIVYTTFPDWESAEKVVKTLLKERLIACANLREHRAFYWWEGKIEEDKEVGAILKTREDLWEELKERIKELHPYDVPAIIRIDVDDVNEDYLKWLIEETKK	not failed
MSMYNMDLDKVIRKINKKGARTVGLQFPEGLKMQAVKIAKAIESQTPATVIISGDPCFGACDVSDYKMKGSVDLIVHYGHTPLPLKYEVPTLFIEAFSNIDVKKDLEKCLEKLEDYSKIALVTTTQHLHLLNEIKDYLEDNGKEVVLGSSKNTKKGQVLGCNFSSIKNLDAEVYLFIGSGNFHPLGIYLFTKSPVLALDPYNSEIRDISAFADRILRIRFARITKAREAEKWGIIVSSKEGQYRMKLAKEIKKILEDNKMEAYIIMADNINPDILLPYMELDAFVVSACPRIAIDDSQMYKKPLLTPQELEIVLNKRQWENYQLDEILFHERYK	failed

Name the recorded protein production of the item "SKDVLADYKELFRQFSISDIAVWVSTPSFAGVCITEKEFNSKMLPNLESMIFIGEALSKNLTKELMSRFPNTRIINGYGPTEATVGVSVNDMTQKAIDDEK" in your answer.
failed

# return recorded protein production for input "MSEKELELLARIEELERHTWRNSAILRAVAMVAGTAMIGIIVASGVVGGGHGSHWTGPAWNTMWLYGLFAANAVSMFWTTHKD"
failed

Specify protein production for "MDPEEEAFDAIRRFARAENINAASVTAIGAFATATLAFFDLKTQDYQEIPVAEQSEVLTLLGDITLDENGVPNPHLHVVLGFADGSTRGGHFLKGLVRPTLEVVIRETPAELRRSYNREFGIALIDPAKLEHHHHHH" and stop.
not failed
